# MEASURED ON: Glucose transporter (Leishmania mexicana) (UniProt O61059)
# EXPERIMENT DESCRIPTION: ST_JUDE_LEISH: Cytotoxicity at 2uM final concentration against transgenic Leishmania Mexicana promastigotes LmGT2 that are glucose transport deficient and complemented with the L. Mexicana glucose transporter 2. Activity is measured by DNA content using SYBR green in vitro
# Assay type: functional
MEASURED PROPERTY: inhibition (%)
Unit % implied. Number only.

Observe how each entry below is paired with its result.
Cn1c(Nc2cc(C(C)(C)C)on2)nc2cc(Nc3ccnc(Nc4cccc(CS(C)(=O)=O)c4)n3)ccc21 :: -0.39
CCN(CCCN1CCCCC1)c1cc(C)nc(Nc2ccc(Cl)c(C(F)(F)F)c2)n1 :: -1.78
Cc1cc(N[C@@H](Cc2ccccc2)C(=O)NCCc2ccccc2)nc(NCC2CCCCC2)n1 :: 1.29
CCCCCCCn1c2c(c(=N)c3c1CCC3)CCCC2 :: 80.1
CC(C)CCNC(=O)C1Cc2c([nH]c3cc(Cl)ccc23)C2(CCN(CCc3ccccc3)CC2)N1 (centres undefined) :: 0.76

(Q) Missing value: inhibition, Glucose transporter (Leishmania mexicana) (UniProt O61059), entry `Nc1ncc(-c2ccccc2)cc1-c1cccc2ncccc12` . Fill in?
(A) 6.36

----------
# MEASURED ON: Solute carrier family 2, facilitated glucose transporter member 1 (Homo sapiens) (UniProt P11166)
# Sequence (P11166 whole entry): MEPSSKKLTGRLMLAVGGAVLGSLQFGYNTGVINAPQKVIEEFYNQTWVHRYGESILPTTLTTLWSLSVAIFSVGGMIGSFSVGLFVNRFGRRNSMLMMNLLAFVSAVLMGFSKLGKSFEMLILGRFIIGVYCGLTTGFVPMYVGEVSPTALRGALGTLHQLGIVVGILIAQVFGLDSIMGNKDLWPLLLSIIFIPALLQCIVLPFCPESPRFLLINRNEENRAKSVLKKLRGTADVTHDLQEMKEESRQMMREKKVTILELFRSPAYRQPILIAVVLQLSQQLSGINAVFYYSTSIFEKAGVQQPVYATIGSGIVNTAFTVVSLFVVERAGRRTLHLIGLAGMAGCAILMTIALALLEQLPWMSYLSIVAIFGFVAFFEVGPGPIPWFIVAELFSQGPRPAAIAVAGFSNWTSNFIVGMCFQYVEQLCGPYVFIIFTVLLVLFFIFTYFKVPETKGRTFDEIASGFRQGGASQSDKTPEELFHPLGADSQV
# EXPERIMENT DESCRIPTION: ST_JUDE_LEISH: Cytotoxicity at 2uM final concentration against transgenic Leishmania Mexicana promastigotes LmGLUT1 that are glucose transport deficient and complemented with the human glucose transporter GLUT1. Activity is measured by DNA content using SYBR green in vitro
# Format: functional
MEASURED PROPERTY: inhibition (%)
Unit % implied. Number only.

CCCCN1C(=O)C2CC(=O)CC(C3CCCCC3)C2C1=O (stereo not given) :: 0.97
Cc1cccc2nc(-c3cccc(-c4cccc(CNCCc5ccncc5)c4)c3)[nH]c12 :: -1.47
COc1ccc2nccc([C@@H](O)CN3CCC(NCc4cc5cccc(O)c5[nH]4)CC3)c2c1 :: 1.85
OC(CNCc1ccccc1OCc1ccccc1)c1cc(C(F)(F)F)cc(C(F)(F)F)c1 (stereo not given) :: 8.75
Cc1ccc(Nc2nc(C)cc(NC3CC3)n2)cc1 :: 8.73
Cc1cc(N(C)C2CCN(CC3CCCCC3)C2)nc(Nc2ccc(Cl)cc2)n1 (stereo not given) :: 7.35

(Q) For COc1ccccc1C1CCN(C2CCC(NC(=O)/C=C/c3cccc(C(F)(F)F)c3)CC2)CC1 (stereo not given) , what is its reported inhibition?
(A) 3.95

(Q) For CC1CCCC(C)N1C[C@@H](O)CNS(=O)(=O)c1cccc(C(F)(F)F)c1 (stereo not given in full) , what is its reported inhibition?
(A) 0.21

(Q) For `COc1ccc(CNCc2cccc(-c3cccc(-c4nc5cccc(C)c5[nH]4)c3)c2)cc1` , what is its reported inhibition?
(A) 9.14

(Q) For `N#Cc1cccc(CN(Cc2ccc(Cl)c(Cl)c2)S(=O)(=O)c2cccc([N+](=O)[O-])c2)c1` , what is its reported inhibition?
(A) 2.24

(Q) For `COc1cc(-c2nc(-c3ccncc3)c(-c3ccc4c(c3)CCC4=NO)[nH]2)ccc1OCCN1CCN(C)CC1` , what is its reported inhibition?
(A) 6.6

(Q) For `O=C(Nc1cccc(CN2CCCN(Cc3ccc(O)cc3)CC2)c1)c1cc2ccccc2s1` , what is its reported inhibition?
(A) -1.48

(Q) For `CCOc1ccc(Br)cc1/C=C/C(=O)Nc1ccc(C2CCN(C)CC2)cc1` , what is its reported inhibition?
(A) 9.52

(Q) For `CCOc1ccc2nc(N(CCCn3ccnc3)C(=O)C=Cc3cccs3)sc2c1` , what is its reported inhibition?
(A) 3.54

(Q) For `CCn1ccc2c(N3CCCS3(=O)=O)cc(C(=O)N[C@@H](Cc3ccccc3)[C@H](O)CNC(C)(C)c3cccc(OC)c3)cc21` , what is its reported inhibition?
(A) 0.43

(Q) For `COc1cc2nc(N3CCN(c4cc(C)ccc4C)CC3)nc(N)c2cc1OC` , what is its reported inhibition?
(A) 1.13

----------
# MEASURED ON: Solute carrier family 2, facilitated glucose transporter member 1 (Homo sapiens) (UniProt P11166)
# EXPERIMENT DESCRIPTION: ST_JUDE_LEISH: Cytotoxicity at 2uM final concentration against transgenic Leishmania Mexicana promastigotes LmGLUT1 that are glucose transport deficient and complemented with the human glucose transporter GLUT1. Activity is measured by DNA content using SYBR green in vitro
# Type: functional
MEASURED PROPERTY: inhibition (%)
Unit % implied. Number only.

Observe how each entry below is paired with its result.
O=C(Nc1ccc(OC2CCN(Cc3ccccc3)C2)c(Cl)c1)c1ccsc1 (centres undefined) :: 1.05
Cc1ccccc1N1CCN(c2ccc(C(=O)Nc3ccccc3)cc2)CC1 :: -0.27
COCCNCc1cccc(-c2ccc3nccc(Nc4cc(O)ccc4C)c3c2)c1 :: 3.68
Cc1cccc2nc(-c3cccc(-c4ccc(NC(=O)Cc5ccc[n+]([O-])c5)cc4)c3)[nH]c12 :: 0.18
Cc1cccc2nc(-c3ccc(-c4ccc(CN5CCN(c6cnccn6)CC5)cc4)s3)[nH]c12 :: 11.9

(Q) For `Cc1ccc2c(=NN=CC=Cc3ccccc3)cc(C)[nH]c2c1` , what is its reported inhibition?
(A) 1.49

(Q) For `CN(C)CCN(Cc1ccccc1-c1ccc(CNCCc2ccccc2)cc1)C(=O)c1ccccc1` , what is its reported inhibition?
(A) 3.46

(Q) For `O=C(NCCCCN1CCC(c2ccc(C(F)(F)F)cc2C(F)(F)F)CC1)c1ccc(NC(=O)c2ccc(Cl)cc2)cc1` , what is its reported inhibition?
(A) 0.67

(Q) For N#Cc1ccccc1C1CCN(C2CCC(Nc3cc(-c4cccnc4)ccn3)CC2)CC1 (centres undefined) , what is its reported inhibition?
(A) 2.02

(Q) For CCCC(C)Nc1nc(C)cc(N[C@@H](CC(C)C)C(=O)NC2CCCC2)n1 (some centres undefined) , what is its reported inhibition?
(A) 2.53

(Q) For `CCc1cc(COc2ccc(CNCCC(C)C)cc2I)c(OCc2ccccc2)c(COc2ccc(CNCCC(C)C)cc2I)c1` , what is its reported inhibition?
(A) -0.25

(Q) For `CCOC(=O)Nc1cc(-c2csc(N=C(N)N)n2)cc([N+](=O)[O-])c1` , what is its reported inhibition?
(A) 0.23

(Q) For `Cc1nc(N/C(N)=N/C(=O)NC2CCCCC2)nc2ccccc12` , what is its reported inhibition?
(A) 7.72

(Q) For `Fc1ccccc1CNc1ncc(-c2ccsc2)c(-c2nccs2)n1` , what is its reported inhibition?
(A) -0.99

(Q) For CCC1=C(CC2NCCc3cc(OC)c(OC)cc32)CC2c3cc(OC)c(OC)cc3CCN2C1 (centres undefined) , what is its reported inhibition?
(A) 87.8

(Q) For O=C(Nc1ccc(OC(F)(F)F)cc1)NC1CCN(c2ccnc3ccccc23)C1 (centres undefined) , what is its reported inhibition?
(A) 3.08

(Q) For `CN1CCN(CCCN(Cc2ccc(-c3cccc(CNC4CCCC4)c3)cc2)C(=O)/C=C/c2ccccc2)CC1` , what is its reported inhibition?
(A) 10.2

(Q) For `Nc1nc(N)c2c(ccc3c2ccn3CC2CC2)n1` , what is its reported inhibition?
(A) 2.11

(Q) For `Cc1ccc(CNC(=O)[C@H](CCCN)Nc2cc(C)nc(NCC3CCCCC3)n2)cc1` , what is its reported inhibition?
(A) 1.46

(Q) For `CCN(CC)c1ccccc1CNC(=O)c1cc(Cl)c(N)cc1OC` , what is its reported inhibition?
(A) 9.4

----------
# MEASURED ON: Hexose transporter 1 (Plasmodium falciparum)
# EXPERIMENT DESCRIPTION: ST_JUDE_LEISH: Cytotoxicity at 2uM final concentration against transgenic Leishmania Mexicana promastigotes LmPfHT that are glucose transport deficient and complemented with the Plasmodium falciparum hexose transporter. Activity is measured by DNA content using SYBR green in vitro
# Type: functional
MEASURED PROPERTY: inhibition (%)
Unit % implied. Number only.

Observe how each entry below is paired with its result.
CCC(C)NC(=O)Nc1ccc(-c2cccc(-c3nc4cccc(C)c4[nH]3)c2)cc1 (stereo not drawn) :: 0.26
COc1ccc(CC(=O)NC(CCCN2CCC3(CC2)OCc2ccccc23)c2ccc(Cl)c(Cl)c2)cc1 (stereo not drawn) :: 2.18

(Q) For `COc1cc(NC(=O)Nc2ccnc3ccccc23)cc(OC)c1` , what is its reported inhibition?
(A) -0.6

(Q) For `OCC1CCN(Cc2ccc(-c3cccc(-c4nc5cc(F)ccc5[nH]4)c3)cc2)CC1` , what is its reported inhibition?
(A) -1.06

(Q) For `O=C(Nc1ccc2[nH]c(-c3ccc4nc(NC(=O)C5CCCCC5)sc4c3)nc2c1)C1CCCCC1` , what is its reported inhibition?
(A) -0.34
